TARGET_OR_TEST_SYSTEM: GST-FAK (N-terminal GST fusion with truncated human FAK (376-1052 (end) amino acids)) (Homo sapiens, UniProt Q05397)
Construct: truncated human FAK (376-1052 (end) amino acids)
Sequence (Q05397 376-1052): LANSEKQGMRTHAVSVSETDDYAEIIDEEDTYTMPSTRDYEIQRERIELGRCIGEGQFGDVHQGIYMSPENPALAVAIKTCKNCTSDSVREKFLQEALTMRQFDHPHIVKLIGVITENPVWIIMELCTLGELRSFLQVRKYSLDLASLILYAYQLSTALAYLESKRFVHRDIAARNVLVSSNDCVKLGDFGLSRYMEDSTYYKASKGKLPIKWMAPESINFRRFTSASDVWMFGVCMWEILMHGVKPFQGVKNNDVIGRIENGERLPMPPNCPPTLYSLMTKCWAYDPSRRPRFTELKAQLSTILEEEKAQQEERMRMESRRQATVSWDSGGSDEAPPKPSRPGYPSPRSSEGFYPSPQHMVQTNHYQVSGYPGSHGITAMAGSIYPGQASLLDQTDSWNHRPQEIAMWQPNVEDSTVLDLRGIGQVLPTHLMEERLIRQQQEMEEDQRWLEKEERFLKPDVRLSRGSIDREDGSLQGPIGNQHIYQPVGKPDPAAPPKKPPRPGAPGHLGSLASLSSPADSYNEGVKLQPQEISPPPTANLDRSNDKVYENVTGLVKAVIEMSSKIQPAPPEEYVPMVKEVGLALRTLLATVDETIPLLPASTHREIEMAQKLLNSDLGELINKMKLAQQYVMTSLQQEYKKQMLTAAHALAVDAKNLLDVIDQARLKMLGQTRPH
PROTOCOL_NOTES: Biochemical enzyme assay for FAK activity (Caliper LC3000 mobility shift)
EXPERIMENTAL_SETUP: Table 5; 100 uM ATP; read-out: FAK IC50
PARAMETER_MEASURED: IC50

Solved entries:
SMI: Fc1ccc(CNc2cc(-c3cncc(C(F)(F)F)c3)ncn2)c(F)c1
IC50: > 10 µM
//
SMI: CS(=O)(=O)Nc1cccc(-c2nccc(NCc3ccc(F)cc3F)n2)c1
IC50: > 10 µM

Can you look up the measured IC50 of "Fc1ccc(CNc2nccc(-c3cncc(C(F)(F)F)c3)n2)c(C(F)(F)F)c1" for me? < 0.1 µM

---

Items are presented alongside their recorded IC50.
TARGET_OR_TEST_SYSTEM: GST-FAK (N-terminal GST fusion with truncated human FAK (376-1052 (end) amino acids)) (Homo sapiens)
Construct: truncated human FAK (376-1052 (end) amino acids)
PROTOCOL_NOTES: Biochemical enzyme assay for FAK activity (Caliper LC3000 mobility shift)
EXPERIMENTAL_SETUP: Table 5; 100 uM ATP; read-out: FAK IC50
Experimental: 1. Biochemical Enzyme Assays for FAK Activity The FAK assays described here are performed on two Caliper Life Sciences systems, the LC3000 and the EZ Reader II. […] The plate is read on a Caliper LC 3000 in an Off-Chip mobility shift assay format, using the following parameters for a 12-sipper chip: screening pressure—1.9 psi, upstream voltage—3000, downstream voltage—700. […]

Solved entries:
MOLECULE: CS(=O)(=O)N1CCOC(CNc2ccnc(-c3cncc(C(F)(F)F)c3)n2)C1 (stereo not shown)
PARAMETER_MEASURED: IC50
VALUE_OBSERVED: 1 to 10 µM
//
MOLECULE: COc1cc(NC(=O)c2cc(NCc3ccc(F)cc3F)nc(-c3cncc(C(F)(F)F)c3)n2)ccn1
PARAMETER_MEASURED: IC50
VALUE_OBSERVED: 1 to 10 µM
//
MOLECULE: CS(=O)(=O)Nc1cccc(-c2nc(NCc3ccc(F)cc3F)c3ncn(C4CCCCO4)c3n2)c1 (stereo not shown)
PARAMETER_MEASURED: IC50
VALUE_OBSERVED: > 10 µM
//
MOLECULE: CCOC(=O)c1ccccc1Nc1ccnc(-c2cncc(C(F)(F)F)c2)n1
PARAMETER_MEASURED: IC50
VALUE_OBSERVED: > 10 µM
//
MOLECULE: CNC(=O)C(Nc1ccnc(-c2cncc(C(F)(F)F)c2)n1)c1ccc(O)cc1 (stereo not shown)
PARAMETER_MEASURED: IC50
VALUE_OBSERVED: > 10 µM

Can you look up the measured IC50 of "COc1cncc(-c2nccc(NCc3cccnc3)n2)c1" for me? 1 to 10 µM

Can you look up the measured IC50 of "COc1cncc(-c2nccc(NCc3ccc(F)cc3F)n2)c1" for me? < 0.1 µM

Can you look up the measured IC50 of "Fc1ccc(CNc2ccnc(-c3cccc(C(F)(F)F)c3)n2)c(F)c1" for me? > 10 µM

Can you look up the measured IC50 of "Fc1ccc(CNc2cc(-c3cncc(C(F)(F)F)c3)nc(-c3cncc(C(F)(F)F)c3)n2)c(F)c1" for me? 1 to 10 µM

Can you look up the measured IC50 of "N#Cc1cncc(-c2nccc(NCc3ncccc3F)n2)c1" for me? 1 to 10 µM

Can you look up the measured IC50 of "CN(c1ncccc1CNc1nccc(-c2cncc(C(F)(F)F)c2)n1)S(C)(=O)=O" for me? 1 to 10 µM

Can you look up the measured IC50 of "O=C1c2ccccc2CN1c1ccnc(-c2cncc(C(F)(F)F)c2)n1" for me? > 10 µM

---

TARGET_OR_TEST_SYSTEM: GST-FAK (N-terminal GST fusion with truncated human FAK (376-1052 (end) amino acids)) (Homo sapiens)
Construct: truncated human FAK (376-1052 (end) amino acids)
PROTOCOL_NOTES: Biochemical enzyme assay for FAK activity (Caliper LC3000 mobility shift)
EXPERIMENTAL_SETUP: Table 5; 100 uM ATP; read-out: FAK IC50
PARAMETER_MEASURED: IC50

Solved entries:
COMPOUND: COc1ncccc1NC(=O)c1cc(NCc2ccc(F)cc2F)nc(-c2cncc(C(F)(F)F)c2)n1
IC50: 0.1 to 1 µM
--
COMPOUND: CC(Nc1ccnc(-c2cncc(C(F)(F)F)c2)n1)c1ccccc1F (stereo not shown)
IC50: 0.1 to 1 µM
--
COMPOUND: Fc1ccc(CNc2cc(-c3cncc(C(F)(F)F)c3)ncn2)c(C(F)(F)F)c1
IC50: 1 to 10 µM
--
COMPOUND: COc1cncc(-c2nccc(NCc3csc(-c4ccccc4)n3)n2)c1
IC50: > 10 µM
--
COMPOUND: CNC(=O)c1ccccc1Nc1ccnc(-c2cncc(C(F)(F)F)c2)n1
IC50: > 10 µM
--
COMPOUND: COc1cncc(-c2nccc(NCc3ccc(F)cc3C(F)(F)F)n2)c1
IC50: < 0.1 µM

Can you look up the measured IC50 of "Fc1cnc(CNc2ccnc(-c3cncc(C(F)(F)F)c3)n2)c(F)c1" for me? < 0.1 µM

Can you look up the measured IC50 of "COc1cncc(-c2nccc(NCCc3cccc(C(F)(F)F)c3)n2)c1" for me? > 10 µM

Can you look up the measured IC50 of "Fc1cc(Cl)ccc1CNc1cc(-c2cncc(C(F)(F)F)c2)ncn1" for me? 1 to 10 µM

Can you look up the measured IC50 of "CN1CCN(C(=O)c2cc(NCc3ccc(F)cc3F)nc(-c3cncc(C(F)(F)F)c3)n2)CC1" for me? 0.1 to 1 µM

---

TARGET_OR_TEST_SYSTEM: GST-FAK (N-terminal GST fusion with truncated human FAK (376-1052 (end) amino acids)) (Homo sapiens)
Construct: truncated human FAK (376-1052 (end) amino acids)
PROTOCOL_NOTES: Biochemical enzyme assay for FAK activity (Caliper LC3000 mobility shift)
EXPERIMENTAL_SETUP: Table 3; 100 uM ATP; read-out: FAK IC50
pIC50: −log10 of the molar value.
Items are presented alongside their recorded pIC50.

SMI: Cc1cc(NCc2cccc(F)c2)nc(-c2cccnc2)n1
pIC50: < 5.00

SMI: FC(F)(F)c1cncc(-c2nccc(NCc3cccc4nsnc34)n2)c1
pIC50: > 7.00

SMI: Cc1ccc(CNc2ccnc(-c3cccnc3N)n2)cc1
pIC50: < 5.00

Then this molecule:
Can you look up the measured pIC50 of "Nc1ncccc1-c1nccc(NCc2ccccc2C(F)(F)F)n1" for me? 6.00 to 7.00

---

Items are presented alongside their recorded pIC50.
TARGET_OR_TEST_SYSTEM: GST-FAK (N-terminal GST fusion with truncated human FAK (376-1052 (end) amino acids)) (Homo sapiens, UniProt Q05397)
Construct: truncated human FAK (376-1052 (end) amino acids)
PROTOCOL_NOTES: Biochemical enzyme assay for FAK activity (Caliper LC3000 mobility shift)
EXPERIMENTAL_SETUP: Table 3; 100 uM ATP; read-out: FAK IC50
pIC50: −log10 of the molar value.

Solved entries:
SMI: Nc1ncccc1-c1nccc(NCc2ccc(C(F)(F)F)cc2)n1
pIC50: < 5.00
//
SMI: Fc1ccccc1CNc1ccnc(-c2cccnc2)n1
pIC50: 6.00 to 7.00
//
SMI: Nc1ncccc1-c1nccc(NCc2cccc(F)c2)n1
pIC50: < 5.00
//
SMI: Nc1ncccc1-c1nccc(NCc2cccc3ccnn23)n1
pIC50: < 5.00
//
SMI: CS(=O)(=O)c1ccccc1CNc1ccnc(-c2cccnc2N)n1
pIC50: 5.00 to 6.00
//
SMI: Nc1ncccc1-c1cccc(NCc2ccccc2C(F)(F)F)c1
pIC50: < 5.00
//
SMI: Nc1ncccc1-c1nccc(NCc2cnccc2C(F)(F)F)n1
pIC50: 5.00 to 6.00

Then this compound:
Can you look up the measured pIC50 of "CN(c1ncccc1CNc1ccnc(-c2cccnc2N)n1)S(C)(=O)=O" for me? < 5.00

---

TARGET_OR_TEST_SYSTEM: focal adhesion kinase (FAK) autophosphorylation at tyrosine 397 in HT29 cells (Homo sapiens)
Construct: endogenous in cells; host or cells: HT29
Sequence (Q05397 whole entry): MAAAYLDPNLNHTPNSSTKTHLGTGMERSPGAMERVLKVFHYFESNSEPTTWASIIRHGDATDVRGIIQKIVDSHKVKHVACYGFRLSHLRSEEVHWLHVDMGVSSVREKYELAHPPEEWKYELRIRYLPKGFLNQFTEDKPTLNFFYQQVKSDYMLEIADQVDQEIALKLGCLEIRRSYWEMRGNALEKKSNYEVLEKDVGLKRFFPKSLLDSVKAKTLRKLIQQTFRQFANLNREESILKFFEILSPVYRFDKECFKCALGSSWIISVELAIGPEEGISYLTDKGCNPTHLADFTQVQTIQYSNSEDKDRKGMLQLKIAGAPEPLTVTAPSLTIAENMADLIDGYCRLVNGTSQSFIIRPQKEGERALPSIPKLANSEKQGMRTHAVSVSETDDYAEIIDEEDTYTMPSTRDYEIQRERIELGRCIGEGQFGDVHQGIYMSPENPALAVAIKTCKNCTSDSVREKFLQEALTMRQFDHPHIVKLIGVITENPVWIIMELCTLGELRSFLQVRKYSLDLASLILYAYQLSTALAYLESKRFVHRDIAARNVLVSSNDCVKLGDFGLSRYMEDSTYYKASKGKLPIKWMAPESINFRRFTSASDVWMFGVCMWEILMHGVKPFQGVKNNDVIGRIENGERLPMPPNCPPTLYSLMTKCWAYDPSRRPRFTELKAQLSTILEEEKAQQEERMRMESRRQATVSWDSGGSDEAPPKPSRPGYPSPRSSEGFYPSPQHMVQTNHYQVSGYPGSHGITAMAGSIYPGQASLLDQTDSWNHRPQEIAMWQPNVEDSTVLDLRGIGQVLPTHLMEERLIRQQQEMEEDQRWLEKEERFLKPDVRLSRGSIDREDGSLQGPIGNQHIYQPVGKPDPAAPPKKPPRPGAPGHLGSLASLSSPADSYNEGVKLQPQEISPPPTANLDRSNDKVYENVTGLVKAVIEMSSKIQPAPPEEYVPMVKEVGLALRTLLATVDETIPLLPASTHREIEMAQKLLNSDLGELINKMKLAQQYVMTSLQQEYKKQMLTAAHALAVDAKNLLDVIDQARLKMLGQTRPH
PROTOCOL_NOTES: Cellular testing of FAK inhibitors: FAK autophosphorylation at tyrosine 397 in HT29 cells (Luminex-based assay)
Format: cell-based
EXPERIMENTAL_SETUP: Table 2, phospho-Y397-FAK, 30 min serum-free, read-out: HT-29 IC50
PARAMETER_MEASURED: IC50

Solved entries:
SMI: NC(=O)CCNC(=O)c1cc(NCc2ccc(F)cc2F)nc(-c2cncc(C(F)(F)F)c2)n1
VALUE_OBSERVED: 0.1 to 1 µM

SMI: CN1CCC(NC(=O)c2cc(NCc3ccc(F)cc3F)nc(-c3cncc(C(F)(F)F)c3)n2)CC1
VALUE_OBSERVED: 1 to 10 µM

SMI: CN(C)CCCNC(=O)c1cc(NCc2ccc(F)cc2F)nc(-c2cncc(C(F)(F)F)c2)n1
VALUE_OBSERVED: 1 to 10 µM

SMI: CCN(CC)C(=O)CCNc1cc(NCc2ccc(F)cc2F)nc(-c2cncc(C(F)(F)F)c2)n1
VALUE_OBSERVED: 1 to 10 µM

SMI: O=C(NCCC(=O)N1CCOCC1)c1cc(NCc2ccc(F)cc2F)nc(-c2cncc(C(F)(F)F)c2)n1
VALUE_OBSERVED: 1 to 10 µM

SMI: CN(C)CCCCNC(=O)c1cc(NCc2ccc(F)cc2F)nc(-c2cncc(C(F)(F)F)c2)n1
VALUE_OBSERVED: 1 to 10 µM

SMI: Fc1ccc(CNc2cc(NCCCn3ccnc3)nc(-c3cncc(C(F)(F)F)c3)n2)c(F)c1
VALUE_OBSERVED: 1 to 10 µM

SMI: O=C(NCCCN1CCOCC1)c1cc(NCc2ccc(F)cc2F)nc(-c2cncc(C(F)(F)F)c2)n1
VALUE_OBSERVED: > 10 µM

SMI: O=C(NCCc1c[nH]cn1)c1cc(NCc2ccc(F)cc2F)nc(-c2cncc(C(F)(F)F)c2)n1
VALUE_OBSERVED: 1 to 10 µM

SMI: CN(C)CCCCNc1cc(NCc2ccc(F)cc2F)nc(-c2cncc(C(F)(F)F)c2)n1
VALUE_OBSERVED: > 10 µM

Can you look up the measured IC50 of "CN1CCN(C(=O)CCNc2cc(NCc3ccc(F)cc3F)nc(-c3cncc(C(F)(F)F)c3)n2)CC1" for me? 1 to 10 µM

Can you look up the measured IC50 of "NC(=O)C1CCN(c2cc(NCc3ccc(F)cc3F)nc(-c3cncc(C(F)(F)F)c3)n2)CC1" for me? 1 to 10 µM

Can you look up the measured IC50 of "O=C(CCNc1cc(NCc2ccc(F)cc2F)nc(-c2cncc(C(F)(F)F)c2)n1)N1CCOCC1" for me? 1 to 10 µM

Can you look up the measured IC50 of "O=C1CCCN1CCCNc1cc(NCc2ccc(F)cc2F)nc(-c2cncc(C(F)(F)F)c2)n1" for me? 1 to 10 µM
